- target_entity: human bradykinin B2 receptor (Homo sapiens, UniProt P30411)
- Construct: The HindIII/XbaI fragment of one full-length clone, 126A, was inserted into pcDNAI neo vector; expressed in transfected cells
- Sequence (P30411 1-391): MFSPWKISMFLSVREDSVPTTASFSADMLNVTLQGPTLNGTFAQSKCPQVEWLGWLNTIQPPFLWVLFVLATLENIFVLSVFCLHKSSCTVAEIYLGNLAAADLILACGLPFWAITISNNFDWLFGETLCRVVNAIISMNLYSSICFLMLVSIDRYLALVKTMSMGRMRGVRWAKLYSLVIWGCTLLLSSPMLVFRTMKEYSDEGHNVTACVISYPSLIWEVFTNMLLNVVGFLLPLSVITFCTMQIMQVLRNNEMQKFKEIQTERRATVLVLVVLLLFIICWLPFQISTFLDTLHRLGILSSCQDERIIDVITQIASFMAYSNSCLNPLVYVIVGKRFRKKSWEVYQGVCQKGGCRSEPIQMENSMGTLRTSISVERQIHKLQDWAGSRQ
- procedure_text: Radioligand binding, H2O.2 cell membranes, 3H-NPC17731
- recorded_conditions: Table 1; 3H-NPC17731; read-out: Radioligand Binding Human 3H17731
- Procedure: A human bradykinin B2 receptor was expressed in CHO/K cells. […] The nucleotide sequence of the cloned human B2 receptors was determined using double-stranded DNA and the dideoxy chain termination method. […] Membranes from H2O.2 cells previously prepared were thawed at 37° C. and diluted in 25 mM TES, […] 1,10-phenanthroline pH 6.8 containing BSA and bactiracin. […] Non-specific binding was determined with 1 μM bradykinin. […] Radioactivity was counted with a Beckman scintillation counter.
Starred links: 1 amine or outer side, 2 acyl side, 3 side chain; linkers in the order of their positions; H or OH if unused. Non-standard residues stand in square brackets, D forms with d. Residues, ends and D or L forms follow the SMILES beside them. X7 = O=C(Cn1c(=O)c2ccccc2c2ccc(N[*:1])cc21)[*:2]; Butenoyl(2E,4-amino) = O=C(/C=C/CN[*:1])[*:2]; X4 = O=C(Cn1c2c(c3ccccc31)CN([*:1])CC2)[*:2]; Oic = O=C(O)[C@@H]1C[C@@H]2CCCC[C@@H]2N1; X2 = O=C(/C=C/c1ccccc1CN[*:1])[*:2]; dTic = O=C(O)[C@H]1Cc2ccccc2CN1; 12Ado = NCCCCCCCCCCCC(=O)O; Nphe = O=C(O)CNCc1ccccc1; Ahx = NCCCCCC(=O)O
Label class 1 when Ki is strictly below 60 nM; at or above that, label class 0.

1. N=C(N)NCCC[C@@H](N)C(=O)N[C@@H](CCCNC(=N)N)C(=O)NC/C=C/C(=O)N[C@@H](CO)C(=O)N1Cc2ccccc2C[C@@H]1C(=O)N1[C@H](C(=O)N[C@@H](CCCNC(=N)N)C(=O)O)C[C@@H]2CCCC[C@@H]21 (H-[dR]R[Butenoyl(2E,4-amino)]S[dTic][Oic]R-OH)
class 0
2. N=C(N)NCCC[C@@H](N)C(=O)N[C@@H](CCCNC(=N)N)C(=O)NCc1ccccc1/C=C/C(=O)N(CC(=O)N[C@@H](CO)C(=O)N1Cc2ccccc2C[C@@H]1C(=O)N1[C@H](C(=O)N[C@@H](CCCNC(=N)N)C(=O)O)C[C@@H]2CCCC[C@@H]21)Cc1ccccc1 (H-[dR]R[X2][Nphe]S[dTic][Oic]R-OH)
class 1
3. N=C(N)NCCC[C@@H](N)C(=O)N[C@@H](CCCNC(=N)N)C(=O)N1CCc2c(c3ccccc3n2CC(=O)N[C@@H](CO)C(=O)N2Cc3ccccc3C[C@@H]2C(=O)N2[C@H](C(=O)N[C@@H](CCCNC(=N)N)C(=O)O)C[C@@H]3CCCC[C@@H]32)C1 (H-[dR]R[X4]S[dTic][Oic]R-OH)
class 0
4. N=C(N)NCCC[C@@H](N)C(=O)N[C@@H](CCCNC(=N)N)C(=O)NCCCCCC(=O)N[C@@H](CO)C(=O)N1Cc2ccccc2C[C@@H]1C(=O)N1[C@H](C(=O)N[C@@H](CCCNC(=N)N)C(=O)O)C[C@@H]2CCCC[C@@H]21 (H-[dR]R[Ahx]S[dTic][Oic]R-OH)
class 0
5. N=C(N)NCCC[C@@H](N)C(=O)N[C@@H](CCCNC(=N)N)C(=O)Nc1ccc2c3ccccc3c(=O)n(CC(=O)N[C@@H](CO)C(=O)N3Cc4ccccc4C[C@@H]3C(=O)N3[C@H](C(=O)N[C@@H](CCCNC(=N)N)C(=O)O)C[C@@H]4CCCC[C@@H]43)c2c1 (H-[dR]R[X7]S[dTic][Oic]R-OH)
class 1

Decide: Ki of N=C(N)NCCC[C@@H](N)C(=O)N[C@@H](CCCNC(=N)N)C(=O)NCc1ccccc1/C=C/C(=O)N[C@@H](CO)C(=O)N1Cc2ccccc2C[C@@H]1C(=O)N1[C@H](C(=O)N[C@@H](CCCNC(=N)N)C(=O)O)C[C@@H]2CCCC[C@@H]21 (H-[dR]R[X2]S[dTic][Oic]R-OH) strictly below 60 nM?
class 1

Is it true that Ki reported for N=C(N)NCCC[C@@H](N)C(=O)N[C@@H](CCCNC(=N)N)C(=O)NCCCCCCCCCCCC(=O)N[C@@H](CO)C(=O)N1Cc2ccccc2C[C@@H]1C(=O)N1[C@H](C(=O)N[C@@H](CCCNC(=N)N)C(=O)O)C[C@@H]2CCCC[C@@H]21 (H-[dR]R[12Ado]S[dTic][Oic]R-OH) is less than 60 nM?
class 1
